Test target: Interleukin-1 receptor-associated kinase 4 (Homo sapiens);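 further: reported figure is the mean inhibition of IRAK4 activity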
Measurement setup: at 0.1 µM
We use 3% as the dividing line for inhibition: on or above the line is Satisfied, below is Not satisfied.

NS(=O)(=O)c1cccc(-c2ccc3c(NC(=O)C4CC4)n[nH]c3c2)c1
Not satisfied
CNC(=O)c1cncc(/C=C/c2c(Cl)cccc2Cl)c1
Not satisfied
O=C1Nc2ccc(C(=O)c3ccco3)cc2C1=Cc1cc(Cl)c(O)c(Cl)c1
Satisfied

====

Test target: Platelet-derived growth factor receptor beta (Homo sapiens);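 further: each value is a mean percent inhibition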
Measurement setup: at 1 µM
Readout name: inhibition (%)

COC(=O)Nc1nc2cc(Oc3ccc(NC(=O)Nc4cccc(C(=O)O)c4)cc3)ccc2[nH]1
16.2
COc1ccc(COc2ccc(Cc3cnc(N)nc3N)cc2OC)cc1
10
CS(=O)(=O)Nc1ccc(N/C=C2\C(=O)Nc3ccccc32)cc1
38
CN(C)c1cc2c(Nc3ccc4nc(Cc5ccccc5)[nH]c4c3)ncnc2cn1
12.1
CCCN1CCC(Oc2cc(Nc3nc(Nc4cccc(F)c4C(N)=O)c4cc[nH]c4n3)c(OC)cc2Cl)CC1
8.63
Cc1cc(O)cc(C)c1/C=C/c1cncc(-c2nn[nH]n2)c1
49.5
COc1cc(C=NNc2ncnc3c2cnn3-c2ccccc2)ccc1O
68.9
CC(=O)Nc1cccc(C#Cc2cncnc2Nc2ccc(OCc3cccc(F)c3)c(Cl)c2)n1
9.6
COc1cc2ncn(-c3cc(OCc4ccccc4Cl)c(C(N)=O)s3)c2cc1OC
86.5
COc1ccc(-c2nn3ncccc3c2-c2ccnc(Nc3ccc(Cl)c(C(F)(F)F)c3)n2)cc1
5.76
CC1=C(C(=O)Nc2ccc3[nH]ncc3c2)C(c2ccc(Cl)c(Cl)c2)CC(=O)N1 (stereo not given)
6.02
CCn1c(-c2nonc2N)nc2c(N3CCCC3)nccc21
8.55
COc1cc(C)c(NC(=O)CN(C)C)cc1Nc1nc(Nc2cccc(F)c2C(N)=O)c2cc[nH]c2n1
15
CCCN1CCC=C(c2ccc(Nc3nc(Nc4ccccc4C(N)=O)c4cc[nH]c4n3)c(C)c2)C1
37.2
NCc1ccc(-c2nc(-c3ccc(Cl)c(O)c3)c(-c3ccncc3)[nH]2)cc1
31
Cc1cccc(-c2n[nH]cc2-c2ccc3ncccc3n2)n1
26.5
Nc1nc(-c2ccc3c(c2)C(=Cc2cc(Br)c(O)c(Br)c2)C(=O)N3)cs1
7.52
CCc1cccc(NC(=O)Nc2ccc(Oc3ccc4nc(NC(=O)OC)[nH]c4c3)cc2)c1
56.3
NC(=O)c1ccc(-c2nc(-c3ccccn3)c(-c3ccc4c(c3)OCO4)[nH]2)cc1
7.47
CS(=O)(=O)CCN(CC#N)Cc1ccc(-c2ccc3ncnc(Nc4ccc(OCc5cccc(F)c5)c(Cl)c4)c3c2)o1
6.45

====

Test target: Protein kinase C beta type (Homo sapiens) (UniProt P05771);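 further: PKC-beta1 splice variant of the enzyme, figure reported as mean inhibition, measured within the GSK PKIS kinase profiling panel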
Sequence (P05771 2-671 limits assumed): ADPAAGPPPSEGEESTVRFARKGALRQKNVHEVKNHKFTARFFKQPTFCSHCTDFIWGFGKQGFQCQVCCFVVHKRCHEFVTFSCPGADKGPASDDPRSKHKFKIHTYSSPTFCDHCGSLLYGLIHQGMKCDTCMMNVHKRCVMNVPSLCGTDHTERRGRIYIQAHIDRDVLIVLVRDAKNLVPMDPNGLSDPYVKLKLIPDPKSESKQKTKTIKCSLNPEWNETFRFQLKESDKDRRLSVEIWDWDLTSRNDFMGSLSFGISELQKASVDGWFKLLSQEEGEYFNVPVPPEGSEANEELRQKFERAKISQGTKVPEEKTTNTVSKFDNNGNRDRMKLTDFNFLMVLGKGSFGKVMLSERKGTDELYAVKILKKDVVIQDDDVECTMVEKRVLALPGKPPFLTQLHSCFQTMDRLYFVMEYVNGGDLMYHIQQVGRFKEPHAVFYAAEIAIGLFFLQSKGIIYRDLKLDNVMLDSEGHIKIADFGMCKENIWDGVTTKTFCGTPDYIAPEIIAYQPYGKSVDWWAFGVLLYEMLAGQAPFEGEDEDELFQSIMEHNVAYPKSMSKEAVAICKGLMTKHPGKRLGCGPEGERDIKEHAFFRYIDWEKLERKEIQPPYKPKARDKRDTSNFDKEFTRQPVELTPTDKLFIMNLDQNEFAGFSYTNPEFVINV
Measurement setup: at 0.1 µM
Description: GSK_PKIS: PKC-beta1 (splice variant) mean inhibition at 0.1 uM [Nanosyn]
Readout name: inhibition

O=C1NC(=O)C(c2ccccc2Cl)=C1Nc1cccc(O)c1
0.31%
NCc1ccc(-c2nc(-c3ccc(Cl)c(O)c3)c(-c3ccncc3)[nH]2)cc1
5.37%
COc1ccccc1Nc1ncc(-c2ccccc2)o1
1.34%
CCn1c(-c2nonc2N)nc2c(C#CC(C)(C)O)nc(CN3CCCC3)cc21
3.02%
Cn1cc(C=C2C(=O)Nc3cccnc32)c2ccccc21
-0.06%
CNC(=O)c1cncc(/C=C/c2c(Cl)cccc2Cl)c1
0.07%
CC1=C(C(=O)Nc2ccc3[nH]ncc3c2)C(c2ccc(F)cc2)NC(=O)N1 (stereo unspecified)
-0.65%
COc1cccc(-n2ncc3c(N/N=C/c4cccc(F)c4)ncnc32)c1
0.85%
Nc1nc(-c2ccc3c(c2)C(=Cc2cc(Br)c(O)c(Br)c2)C(=O)N3)cs1
0.67%
CCn1c(-c2nonc2N)nc2c(N3CCCC3)nccc21
0.38%
Cc1ccc(NC(=O)c2ccnc(N3CCCC3)c2)cc1-c1ccc(C(=O)NCC2CC2)cc1
0.1%
CS(=O)(=O)CCNCc1ccc(-c2ccc3ncnc(Nc4ccc(OCc5cccc(F)c5)c(C(F)(F)F)c4)c3c2)o1
0.59%
O=C1Nc2ccc(C(=O)c3ccco3)cc2C1=Cc1cc(Cl)c(O)c(Cl)c1
-0.57%
CCCN1CCC(Oc2cc(Nc3nc(Nc4cccc(F)c4C(N)=O)c4cc[nH]c4n3)c(OC)cc2Cl)CC1
0.29%
CS(=O)(=O)Nc1ccc(N/C=C2\C(=O)Nc3ccccc32)cc1
-0.94%
O=C1NC(=O)C(N2CCc3ccccc32)=C1c1ccc(Cl)cc1
-0.46%
CN(C)c1cc2c(Nc3ccc4nc(Cc5ccccc5)[nH]c4c3)ncnc2cn1
-1.06%
COc1cc(C=NNc2ncnc3c2cnn3-c2ccccc2)ccc1O
1.19%
COc1cc(C)c(NC(=O)CN(C)C)cc1Nc1nc(Nc2cccc(F)c2C(N)=O)c2cc[nH]c2n1
-0.18%
CC1=C(C(=O)Nc2ccc3[nH]ncc3c2)C(c2ccc3ccccc3c2)CC(=O)N1 (stereo unspecified)
1.81%
Nc1nc(-c2ccccn2)c(-c2ccc3ncccc3n2)s1
0.07%
